# Tested on: MDA-MB-435 melanoma
# measurement notes: NCI-60 one-dose screen, 48 h (100 = growth as untreated, 0 = no growth, -100 = all killed)
# settings: 10 µM unless noted
This is part of a sample that, as a whole, favours compounds with a hit. Of some 83,000 tested, about 20% had one in any assay.

molecule	growth [%]
CC1=C(C(=O)Nc2ccccc2)C(c2ccc3c(c2)OCO3)NC(=S)N1 (centres undefined)	103
O=C1/C=C/[C@@H](O)[C@@H]2C[C@@H](O)C[C@H]2/C=C/CCC[C@@H](O)CCO1	87.9
CCSc1oc(C)nc1[P+](c1ccccc1)(c1ccccc1)c1ccccc1	25.3
CCCCNC(=O)c1cc([N+](=O)[O-])cc(C2CCCCC2)c1O	33.3
O=C(Nc1ccccc1[N+](=O)[O-])c1ccc(Cl)c(Cl)c1	102
C[C@]1(O)CC(=O)[C@]2(O)C3=C(C=C[C@]2(O)C1)C(=O)c1c(O)cccc1C3=O	-79.8
CC1(C)CC(=O)c2c(nn(-c3ccc(Br)cc3)c2-c2cn(-c3ccccc3)nc2-c2cccnc2)C1	105
COC(=O)C(Cc1ccccc1)NC(=O)c1ccc(NC(=O)c2[nH]c(C)c(Cl)c2Cl)c(OC(C)C)c1 (centres undefined)	100
NC(=O)c1c(NC(=O)c2cccc(C(F)(F)F)c2)sc2c1CCC(=O)C2	-12.2

---

# Tested on: MDA-MB-435 melanoma
# measurement notes: NCI-60 one-dose screen, 48 h
# settings: 10 µM unless noted
Compounds without any hit were thinned out: in the full panel of roughly 83,000, 20% have a hit. Active and inactive are the calls of the source. The calls were made as follows: active = growth percent below 10; inactive = the rest.
Labels: active, inactive

molecule	group
COc1ccc(/C=C/C(c2cc(OC)c(OC)c(OC)c2)n2cncn2)cc1 (stereo not given)	active
Cc1ccc2c(=O)cc(C(=O)Nc3sc4c(c3C(=O)NCc3cccnc3)CCCC4)oc2c1C	inactive
CC1=C2[C@@H](CC1)[C@]1(C)O[C@@](c3ccccc3)(C[C@H]1OC(=O)CO)[C@H]2OC(=O)/C=C/c1ccccc1	active
Cn1c2c(c3ccc(Cl)c(Cl)c31)C(C#N)C(C)(C)NC2=O (stereo not given)	inactive
Oc1ccc(/C=C/c2ccc(O)cc2)cc1	inactive
Cc1c(CN)cc(-c2ccc(Cl)cc2)n1-c1ccccc1	inactive
Cc1[nH]c(C2CC(c3ccc(C(F)(F)F)c(F)c3)=NN2c2ccccc2)c(C)c1C(=O)NCC(F)(F)F (stereo not given)	inactive
CCC1S/C(=N\N=C(\C)c2cc3cc(Cl)ccc3o2)N(c2ccccc2)C1=O (stereo not given)	inactive
O=C(Nc1ncc(Cc2ccccc2)s1)c1ccc2c(c1)OCCCO2	active
COc1ccc(C(=O)/C=C/c2ccc(N3CCCCC3)cc2)cc1OC	inactive

---

# System: OVCAR-5 ovarian
# measurement notes: NCI-60 one-dose screen, 48 h
# settings: 10 µM unless noted
# Method: Growth inhibition of the OVCAR-5 human tumor cell line is measured as a screen for anti-cancer activity. Cells are grown in 96 well plates and exposed to the test compound for 48 hours. Compounds are tested at a single concentration, which is 10^-5 M for most compounds. The reported endpoint is percent growth (GI% or GIPRCNT), where numbers from 0 - 100% represent growth inhibition, and numbers from -100% - 0 represent cell death. For example, a value of 40 represents 60% growth inhibition. […]
Compounds without any hit were thinned out: in the full panel of roughly 83,000, 20% have a hit. Activity calls are given as the source filed them. Rule for the calls: active = growth percent below 10; inactive = the rest.
Labels: active, inactive

molecule	group
FC(F)(F)c1ccc(Cn2cc(CSc3nc4ccccc4s3)nn2)cc1	inactive
COc1ccc(/C=C/C(=O)c2cc(OC)c(OC)c(OC)c2)cc1OCC(=O)Nc1nc2ccc(OC(F)(F)F)cc2s1	inactive
COc1ccc(NC(=O)Nc2ccc(OCCCCCC(=O)NO)cc2)cc1	inactive
C=C1CC[C@@H]2C(C)(C)[C@@H](O)CC[C@@]2(C)[C@@H]1COc1ccc2ccc(=O)oc2c1	inactive
COC(=O)c1c2c(c(C)[n+]([O-])c1C)C(=O)C(NCc1cccc(Cl)c1)=CC2=O	inactive
Cn1cc(-c2ccc(-c3cn(C)c4ccc(Cl)cc34)[nH]2)c2cc(Cl)ccc21	active
CCN1CCN(CC(=O)Nc2ccc(-c3cn4c(n3)sc3cc(Oc5ccnc(C(=O)NC)c5)ccc34)cc2)CC1	inactive
CN1CCN(Cc2ccc(NC(=O)c3cncc(C#Cc4cnc5ccc(Cl)nn45)c3)cc2C(F)(F)F)CC1	active
Cc1ccc(C(=O)Nc2cccc(C#Cc3cccc4[nH]nc(N)c34)c2)cc1C(F)(F)F	inactive
O=C1/C(=C\c2cccc3nccnc23)SC(=S)N1CCc1ccc(O)cc1	inactive
CCN1C(=O)N(CC)C2C1NC(=S)N2/N=C/c1ccc(OC)cc1 (centres undefined)	inactive
NC(=O)c1cccc([C@@H]2O[C@H](CO)[C@@H](O)[C@H]2O)c1	inactive
C=CCn1c(SCC(=O)Nc2ccc(/C(C)=N/O)cc2)nnc1-c1cc(-c2ccc(S(N)(=O)=O)cc2)nc2ccccc12	inactive
N=C(N)c1ccc(-c2ccc(-c3ccccc3)s2)cc1	inactive
COc1cc(OC)c(C(=O)C(CN(C)C)CN(C)C)cc1OC	inactive
O=C(/C=C/c1cccc(Cl)c1Cl)Nc1ncc(Cc2ccccc2Cl)s1	inactive
CN1CCN(CCOc2ccc(-c3cnc4c(-c5cccc(F)c5F)cnn4c3)cc2)CC1	inactive
CN1CCN(C(=O)[C@@]2(C)CC[C@]3(C)CC[C@]4(C)C(=CC[C@@H]5[C@@]6(C)CCC(=O)NC(C)(C)[C@@H]6CC[C@]54C)[C@@H]3C2)CC1	inactive
Cc1ccc(-c2csc(NC(=O)c3ccccc3CN3C(=O)c4ccccc4C3=O)n2)cc1	inactive

---

# Tested on: SF-268 CNS
# measurement notes: NCI-60 one-dose screen, 48 h (100 = growth as untreated, 0 = no growth, -100 = all killed)
# settings: 10 µM unless noted
This is part of a sample that, as a whole, favours compounds with a hit. Of some 83,000 tested, about 20% had one in any assay.
Listing of recorded growth by entry.
quantity measured: growth (%)

molecule	observed value
C[C@@H]1O[C@@H](O[C@@H]2C[C@H](c3ccc4c(c3O)C(=O)C3=C(C4=O)[C@@]4(O)C(=O)C[C@](C)(O)C[C@@]4(O)C=C3)O[C@H](C)[C@H]2O)CC[C@@H]1O[C@H]1C[C@@H](O)[C@H](O)[C@@H](C)O1	87
CC1(C)N=C(N)N=C(N)N1c1ccc(CCCCc2ccccc2)c(Cl)c1	19.6
Cc1ccc(S(=O)(=O)OCCCOS(=O)(=O)c2ccc(C)cc2)cc1	101
CN(Cc1cc(Br)cc(Br)c1O)Cc1cc(Br)cc(Br)c1O	45.3
Nc1ncnc2c1N=C(c1ccc3c(c1)OCO3)CC(c1cccc(Nc3ccnc4cc(C(F)(F)F)ccc34)c1)N2 (stereo not given)	83.6
O=S1(=O)C=C(c2ccccc2)C(c2ccccc2)=C1	3.46
CC1CCN(C(=O)CCCl)c2ccccc21 (stereo not given)	99.7
C=C1C(=O)O[C@H]2[C@H]1CC/C(COC(=O)c1cc3cc(Cl)ccc3[nH]1)=C\CC[C@@]1(C)O[C@@H]21	-88.3
CCN(CC)CCCN1C(=O)c2c(c(C)c3c(oc4ccc(OC)cc43)c2C)C1=O	98.6
CCN1C(=O)N(CC)C2C1NN=c1s/c(=C\c3cnc(C)n3C)c(=O)n12 (stereo not given)	51.9

---

# Test system: A549/ATCC NSCLC
# measurement notes: NCI-60 one-dose screen, 48 h (100 = growth as untreated, 0 = no growth, -100 = all killed)
# settings: 10 µM unless noted
The panel holds about 83,000 compounds, 20% with a hit somewhere; the sample as a whole holds those more often. Calls of active or inactive are those of the source. The calls were made as follows: active = growth percent below 10; inactive = the rest.

compound	growth
CCc1ccc(CCC(=O)Nc2ncc(Cc3cc(Cl)ccc3Cl)s2)o1	22.5% (inactive)
CCOC(=O)C(=CNc1cnc(Nc2ccc(N3CCOCC3)cc2)nc1Oc1ccc(OC)cc1)C(=O)OCC	22.2% (inactive)
CCOC(=O)c1c(C)nc2ccccc2c1/C=C/c1cccs1	64.9% (inactive)
CSC(SC)=C(C#N)c1nc2ccccc2s1	74.8% (inactive)
C/C=C(/C)n1cnc2c(Nc3ccccn3)nc(Cl)nc21	104% (inactive)
O=C(CC(=O)Nc1cccc(C(=O)O)c1)Nc1cccc(C(=O)O)c1	85.8% (inactive)
Cc1ccc(CNc2ccc3nc(CCC(C)C)[nH]c3c2)cc1	97.6% (inactive)
O=C(Nc1ncc(Cc2cc(C(F)(F)F)ccc2Cl)s1)c1cccs1	37.8% (inactive)
Cc1ccc(-c2nc(SCc3nc4cc(Cl)c(Cl)cc4[nH]3)[nH]c(=O)c2C#N)cc1	93.1% (inactive)
C#CCn1cnc2cnc(Nc3cccc(NC(=O)C=C)c3)nc21	85.3% [6.25 µM] (inactive)
O=C1/C(=C/c2ccc(O)c(O)c2)COc2ccc(-c3ccccc3)cc21	31.8% (inactive)
COc1ccc(NC(=O)Nc2ccc(OCCCCCC(=O)NO)cc2)cc1	90.3% (inactive)
S=c1[nH]c(=S)c2c(-c3ccccc3)c(-c3ccccc3)oc2[nH]1	95.7% (inactive)
Nc1nc2c(c3ncccc13)C(c1cccc(Cl)c1)Cc1ncccc1-2 (stereo unspecified)	18.6% (inactive)
Nc1nc(N)c2c(n1)NC(c1ccc(Cl)cc1)C1CCc3ccccc3C1=N2 (stereo unspecified)	64% (inactive)
C=C1C(=O)O[C@H]2[C@H]1CC/C(COC(=O)NCc1ccc(Cn3c(=O)sn(-c4ccc(C#N)cc4)c3=O)cc1)=C\CC[C@@]1(C)O[C@@H]21	96.7% (inactive)
N#C/C(=C\C=C\c1ccc(-c2cc(Cl)ccc2Cl)o1)c1nc2ccccc2s1	99.4% (inactive)
COc1cc2c(c(OC)c1OC)C(=O)CC(c1cccc(NC(=O)c3ccc(C#N)cc3)c1)O2 (stereo unspecified)	77.4% (inactive)
O=C(/C=C(O)/C=C/c1cccc2[nH]ccc12)/C=C/c1cccc2[nH]ccc12	87.5% (inactive)
COc1ccc(/C=C/C(=O)c2cc(OC)c(OC)c(OC)c2)cc1OCC(=O)Nc1nc2ccc(OC(F)(F)F)cc2s1	14.7% (inactive)
N=C(N)c1ccc(-c2ccc(-c3ccccc3)s2)cc1	60.1% (inactive)
